Assay: Human hepatocyte clearance study
Type: in vitro ADME
Conditions: pooled cryopreserved human hepatocytes (suspension); pooled human hepatocytes; read-out: Human In vitro Clint (μL/min/10^6 cells)
Method: The in vitro human hepatocyte clearance of compounds described here was studied using pooled human hepatocytes purchased from BioreclamationIVT (Westbury, NY, Cat #X008001, Lot #TQJ). The assay was conducted according to manufacture's instruction. […] Hepatocyte viability and density were counted using a Trypan Blue exclusion, and then cells were diluted with serum-free incubation medium to a working cell density of 0.5×10^6 viable cells/mL. […] Peak areas were determined from extracted ion chromatograms. […]
readoutLabel: hepatocyte CLint at 1 µM (µL/min/1e6 cells)

{"structureSmilesString": "CC(C)CN(CC(C)C)c1ccc(C2(C(=O)O)CCC2)cc1NC(=O)Nc1ccc(F)cc1F", "hepatocyte CLint at 1 µM [µL/min/1e6 cells]": 0.7}

(1) CC(C)CN(CC(C)C)c1ccc(C2(C(=O)O)CCCC2)cc1Nc1ccccc1
(2) CCN(c1ccc(C2(C(=O)O)CCC2)cc1Nc1ccc(C#N)cn1)C1CCOCC1
(3) CC(C)CN(CC(C)C)c1ncc(C2(C(=O)O)CCC2)cc1Nc1ccc(Cl)cn1
Ranking field: hepatocyte CLint at 1 µM; order: falling. Answer by naming the labels in the order asked.
3, 2, 1
(3: 5.5 µL/min/1e6 cells, 2: 3.3 µL/min/1e6 cells, 1: 0.8 µL/min/1e6 cells)

* * *

test system: kynurenine production in HeLa cells; experiment: Inhibition of kynurenine production in HeLa cells; assay type: cell-based, human; details: Homo sapiens, HeLa, 48 h, HeLa cells, human IFN-γ 50 ng/mL, kynurenine read at 480 nm, read-out: IC50
readoutLabel: IC50 (nM)

{"compound": "CC(C)CN(CC(C)C)c1ccc(C2(C(=O)O)CCC2)cc1NC(=O)Nc1ccc(F)cc1F [Compound 16]", "IC50, nM": 1.5}
{"compound": "Cc1ccc(NC(=O)Nc2cc(C3(C(=O)O)CCCC3)ccc2N(CCC(F)(F)F)Cc2ccc(OC(F)(F)F)cc2)cc1 [Compound 14]", "IC50, nM": 0.5}

(a) CC(C)CN(c1ccc(C2(C(=O)O)CCC2)cc1Nc1cccc(Cl)c1)C1CCOCC1 [Compound 100]
(b) CC(C)CN(CC(C)C)c1ccc(C(C)C(=O)O)cc1NC(=O)Nc1ccc(F)cc1F (stereo not shown) [Compound 2]
Smaller IC50 value? Options are a and b # reply format: chosen label
a

* * *

test: Human hepatocyte clearance study; type: in vitro ADME; settings: pooled cryopreserved human hepatocytes (suspension); pooled human hepatocytes; read-out: Human In vitro Clint (μL/min/10^6 cells)
readoutLabel: hepatocyte CLint at 1 µM (µL/min/1e6 cells)

{"molecule": "CC(C)N(CC1CC1)c1ncc(C2(C(=O)O)CCC2)cc1Nc1ccc(Cl)cn1", "readoutLabel": "hepatocyte CLint at 1 µM", "valueObserved": 7.7}
{"molecule": "CC(C)CN(CC(C)C)c1ncc(C2(C(=O)O)CCC2)cc1Nc1ccc(Cl)cc1", "readoutLabel": "hepatocyte CLint at 1 µM", "valueObserved": 2.2}
{"molecule": "CCOc1ncc(Nc2cc(C3(C(=O)O)CCC3)ccc2N(CC)C2CCOCC2)cn1", "readoutLabel": "hepatocyte CLint at 1 µM", "valueObserved": 0.7}
{"molecule": "CC(C)CN(c1ccc(C2(C(=O)O)CCC2)cc1NC(=O)Nc1ccc(F)cc1F)C1CCOCC1", "readoutLabel": "hepatocyte CLint at 1 µM", "valueObserved": 1.5}
{"molecule": "CCN(c1ncc(C2(C(=O)O)CCC2)cc1Nc1ccc(C#N)cc1)C1CCOCC1", "readoutLabel": "hepatocyte CLint at 1 µM", "valueObserved": 0.9}

(A) CC(C)CN(CC(C)C)c1ccc(C(CC(=O)O)C(F)(F)F)cc1NC(=O)Nc1ccc(F)cc1F (centres unmarked) [Control 1, reference compound]
(B) CC(C)CN(c1ncc(C2(C(=O)O)CCC2)cc1Nc1ccc(C#N)cc1)C1CCOCC1
(C) CC(C)CN(CC(C)C)c1ncc(C2(C(=O)O)CCC2)cc1Nc1ccc(C#N)cn1
// ranking: key=hepatocyte CLint at 1 µM, reverse=True Output the labels ranked as instructed.
C, A, B
(C: 7 µL/min/1e6 cells, A: 4.1 µL/min/1e6 cells, B: 1.3 µL/min/1e6 cells)
